System: HOP-18 NSCLC
Assay: NCI tumour cell line growth inhibition, 48 h
Metric name: TGI

Compound	Observed
COc1cc2ccc3c4ccccc4cnc3c2cc1OC	> 100 µM
CC(C)(CN1C(=O)C(Cl)=C(Cl)C1=O)CN1C(=O)C(Cl)=C(Cl)C1=O	36.1 µM
CC(C)/C=C1\CCC(CN(C)C)C1=O (stereo not drawn)	8.72 µM
COC(=O)C(=O)Cc1nc2ccccc2s1	> 100 µM
CN=c1ss/c(=N\C(=S)N(C)C)n1C	> 100 µM
CC(C)c1cccc(C(C)C)c1NC(=O)C(=O)Cc1nc2ccc([N+](=O)[O-])cc2[nH]c1=O	> 100 µM

Could you report TGI for every entry in the following list?
1. COC(=O)CCSC(=O)Nc1ccc(N=Nc2ccccc2)cc1
2. COc1ccc2[nH]c3c(c2c1)[C@H](c1ccccc1)C[C@@H]1C(=O)N(c2ccccc2)C(=O)[C@H]31
3. CC(C)(C)N=CN1C=Cc2nc3ccccc3cc2C1
4. O=Cc1c[nH]c2c(=O)[nH]cnc12
5. C[C@H]1CC[P+](Cc2ccccc2)(c2ccccc2)C1 (stereo partly drawn)
6. CC(=O)OCC1OC(n2c(=S)n(-c3ccc([N+](=O)[O-])cc3)c(=O)c3ccccc32)C(OC(C)=O)C(OC(C)=O)C1OC(C)=O (stereo not drawn)

Marked response:
> 100 µM
6.5 µM
> 100 µM
> 100 µM
> 100 µM
64.4 µM

Exam item: Please look up its TGI: Nc1nc2c(N)cc(C(F)(F)F)cc2nc1-c1ccccc1
Marked response: > 100 µM

----------
Tested on: PC-3 prostate
Experiment: NCI tumour cell line growth inhibition, 48 h; in the data active = GI50 below about 0.43 µM; inactive = the rest
Parameter call: string, one of active, inactive

Illustrative cases are given below, each with its answer.
Molecule	Class
COc1cnc2c(c1)C(=O)c1c-2n(CCCNC2=NCCS2)c(=O)c2cc(F)ccc12	active
COc1cccc(/C=C/C(=O)c2ccc3cc(OC)ccc3c2)c1	inactive
O=C1Nc2ccc(Cl)cc2/C1=C\c1c(-c2ccc(Cl)cc2)nc2sc(C3CC3)nn12	inactive
CCOCC1(COCC)CCC(c2[nH]ncc2CN(C)CCNC)CC1	inactive
O=C(CS(=O)(=O)c1nc2ccccc2nc1-c1ccccc1)Nc1ccc(F)cc1	inactive
COC1=C(N)C(=O)c2nc(-c3nc(C(=O)O)c(C)c(-c4ccc(OC)c(OC)c4O)c3N)ccc2C1=O	active
COc1cc2cc(Oc3ccc(NC(=O)Nc4cc(C(F)(F)F)cc(C(F)(F)F)c4)cc3)c(C)nc2cc1OCCN1CCOCC1	inactive
N#CCn1c(=O)c(Oc2ccc(F)cc2F)cc2cnc(NC3CCOCC3)nc21	inactive
CCN1CCN(c2nc(C)cc(N(CCCNc3ccnc4cc(Cl)ccc34)Cc3ccc4c(c3)OCO4)n2)CC1	inactive
CC(C)=CCc1cc2c(cc1O)C1=C(C(=O)C3=C(C1=O)S(=O)(=O)CCN3)C(C=C(C)C)O2 (configuration not stated)	inactive

Exam item: Recorded test call requested for COc1cc2oc(-c3cccc(C(=O)Nc4ccc(Cl)cc4)c3)cc(=O)c2c(OC)c1OC
Marked response: inactive

Exam item: Fill in: this test's call for CCOC(=O)c1c(-c2ccccc2)[n+](=O)c2cc(Cl)c(Cl)cc2n1[O-] is ___
Marked response: inactive

----------
Test system: HCT-15 colon
Experiment: NCI tumour cell line growth inhibition, 48 h
Metric name: TGI

Completed entries (count: 4):
O=C(Nc1ccc(Oc2ccc3nc(NC(=O)c4ccco4)[nH]c3c2)cc1)Nc1cc(C(F)(F)F)ccc1F > 17.2 µM
N#CCn1c(=O)c(Oc2ccc(F)cc2F)cc2cnc(NC3CCOCC3)nc21 > 25 µM
CCCNC(=O)Nc1c([N+](=O)[O-])cc(C(F)(F)F)cc1[N+](=O)[O-] > 100 µM
O=C1C(c2ccccc2)=C(c2ccccc2)C(c2ccc(Cc3ccc(C4=C(c5ccccc5)C(=O)C(c5ccccc5)=C4c4ccccc4)cc3)cc2)=C1c1ccccc1 > 100 µM

Exam item: Give the measured TGI of CCOC(=O)Cc1cc(OC)c(OC)cc1/C(Cl)=C(\CO)c1ccc(OC)c(OC)c1 .
Marked response: > 100 µM

----------
Tested on: MDA-MB-231 breast
Test: NCI tumour cell line growth inhibition, 48 h; in the data active = GI50 below about 0.43 µM; inactive = the rest
Hi there, use one of these labels in your reply, thanks! y for active, n for inactive

Observe how each entry below is paired with its result.
CCOC(=O)[C@@H](C)C[C@H](Cc1ccccc1)NC(=O)c1csc([C@@H](C[C@H](C(C)C)N(C)C(=O)[C@@H](NC(=O)[C@H]2CCCCN2C)C(C)(C)CC)OC(C)=O)n1 y
C=C1C[C@H]2C=Nc3cc(OCCCOc4cc5c(cc4OC)C(=O)N4CC(=C)C[C@H]4C=N5)c(OC)cc3C(=O)N2C1 y
CN(C)c1ccc(/C=C\c2ccnc3ccccc23)cc1 n

Exam item: Which outcome did this test record for the molecule COc1cc2oc(-c3cccc(C(=O)Nc4ccc(Cl)cc4)c3)cc(=O)c2c(OC)c1OC ?
Marked response: n

Exam item: What was the test verdict on CCCCCC(=O)N[C@@H](c1ccco1)[C@@H](O)C(=O)O[C@H]1C[C@@]2(O)[C@@H](OC(=O)c3ccccc3)[C@@H]3[C@]4(OC(C)=O)CO[C@@H]4C[C@H](O)[C@@]3(C)C(=O)[C@H](OC(C)=O)C(=C1C)C2(C)C ?
Marked response: y

Exam item: Hi, do you know how COc1cccc(/C=C/C(=O)c2ccc3cc(OC)ccc3c2)c1 came out in this test?
Marked response: n

Exam item: In this assay, the call recorded for O=C(Nc1ccc(Oc2ccc(F)cc2)cc1)[C@@H]1C[C@@H](Cc2ccc(F)cc2)CN1C(=O)Cn1ccnn1 was what?
Marked response: n

Exam item: For N#CCn1c(=O)c(Oc2ccc(F)cc2F)cc2cnc(NC3CCOCC3)nc21 , which call appears in the assay record?
Marked response: n

----------
Tested on: CCRF-CEM leukemia
Assay: NCI tumour cell line growth inhibition, 48 h
Metric name: TGI

Past entries and their recorded results:
Compound	TGI
COC(=O)C(CC(C)C)NC(=O)C(NC(=O)c1ccc(-c2ccc(Cl)cc2Cl)o1)C(C)C (stereo not drawn)	33.2 µM
O=C(O)c1nc2ccccc2nc1Nc1ccc(Cl)c(Cl)c1	> 100 µM
CC(=O)C1CCN(c2ccccc2)C1 (stereo not drawn)	> 100 µM
Cc1c(C)c2c(c(N)c1C#N)C(=O)N(O)C2=O	> 100 µM
CC1=C(c2nc3ccccc3s2)C(=O)OC1(C)C	> 100 µM

Hey, quick one: what's TGI for each of these?
1. FC(F)(F)c1ccccc1C1SCC2=Nc3ccccc3CN21 (stereo not drawn)
2. COc1ccc(-c2cc(=O)c3c(O)c(OC)c(OC)c(OC)c3o2)cc1OC
3. O=C1c2ccccc2C(=O)c2cc3c(cc21)CS(=O)C3

Marked response:
1. 95 µM
2. > 100 µM
3. > 100 µM

----------
System: SNB-75 CNS
Assay: NCI tumour cell line growth inhibition, 48 h
Metric name: TGI

Below, each entry is followed by its recorded TGI result.
Compound	TGI
CC(C)c1cccc(C(C)C)c1NC(=O)C(=O)Cc1nc2ccc([N+](=O)[O-])cc2[nH]c1=O	> 100 µM
COc1cc(C2c3cc4c(cc3[C@@H](NCCN(C)C)C3COC(=O)[C@H]23)OCO4)cc(OC)c1O (some centres not stated)	0.674 µM

Return reported TGI values for all items listed beneath this line.
1. Cc1ccc(/C=C2\Sc3scc(-c4ccccc4)[n+]3C2=O)cc1
2. COc1cc(/C=C2\C(=O)N(Cc3ccc(Cl)cc3)c3ccccc32)cc(OC)c1OC
3. Clc1ccc(Nc2nnc(CNc3ccc(-c4nnc(Nc5ccc(Cl)cc5)s4)cc3)s2)cc1
4. CC(C)=CCCC(C)(OC1OC(CO)C(O)C(O)C1O)C1CCC2(C)C1C(O)CC1C3(C)CCC(O)C(C)(C)C3C(OC3OC(CO)C(O)C(O)C3OC3OC(C)C(O)C(O)C3O)CC12C (configuration not stated) (tested in a mixture with another compound)

Marked response:
> 58.9 µM
> 100 µM
> 100 µM
> 75 µM

----------
So I've got a bunch of molecules here, and I need their TGI values.
Tested on: SF-539 CNS
Test: NCI tumour cell line growth inhibition, 48 h

Solved entries (count: 5):
Molecule	Measured target	TGI
FC(F)(F)c1ccc(C2ON=C(c3ccccc3)N2C23CC4CC(CC(C4)C2)C3)cc1 (stereo not drawn)	SF-539 CNS	> 10 µM
O=C(c1ccc(O)cc1O)C1C(c2ccc(O)cc2)OC(c2ccc(O)cc2)C1C(=O)c1ccc(O)cc1O (stereo not drawn)	SF-539 CNS	47.1 µM
CC1(C)OC(=O)C(C)(C)C(=O)O1	SF-539 CNS	> 100 µM
CC(C)(C)c1cc(CCC(=O)Nc2ccc(Cl)cc2)[nH]c(=S)n1	SF-539 CNS	> 100 µM
CSc1ncnc2c1cnn2Cc1cn(COCCO)nn1	SF-539 CNS	> 100 µM

For the 3 molecules below, give their TGI values.
1. CCOC(=O)c1c(-c2ccccc2)[n+](=O)c2cc(Cl)c(Cl)cc2n1[O-]
2. CSC1=NC(=Nc2c(C)cccc2C)C2(CCC(C(C)(C)C)CC2)N1c1ccc(Cl)cc1 (stereo not drawn)
3. Nc1nnc2c(-c3ccccc3)[nH]nc2n1

Marked response:
32 µM
> 100 µM
> 100 µM
